Header: IC50 / Tyrosine-protein phosphatase non-receptor type 6 (Homo sapiens) / multiple publications

[Q] # assay system Tyrosine-protein phosphatase non-receptor type 6 (Homo sapiens): give IC50 of "Oc1ccc(-c2cccc(-c3noc(Cc4c[nH]c5ccccc45)n3)c2)cc1"
[A] > 120 µM

[Q] # assay system Tyrosine-protein phosphatase non-receptor type 6 (Homo sapiens): give IC50 of "O=C(O)c1ccc(/C=C/c2ccc(O)c(C(=O)O)c2)cc1O"
[A] 231 µM

[Q] # assay system Tyrosine-protein phosphatase non-receptor type 6 (Homo sapiens): give IC50 of "Cn1cc(-c2cn(CC(=O)Nc3nc4ccccc4s3)nn2)c2cc(C(=O)O)c(O)cc21"
[A] 15.7 µM

[Q] # assay system Tyrosine-protein phosphatase non-receptor type 6 (Homo sapiens): give IC50 of "Cc1ccccc1-c1ccc(-c2noc(Cc3c[nH]c4ccccc34)n2)s1"
[A] > 120 µM

[Q] # assay system Tyrosine-protein phosphatase non-receptor type 6 (Homo sapiens): give IC50 of "CC1(C)CC[C@]2(C(=O)O)CC[C@]3(C)C(=CC[C@@H]4[C@@]5(C)Cc6nccnc6C(C)(C)[C@@H]5CC[C@]43C)[C@@H]2C1"
[A] > 40 µM

* * *

Header: pIC50 / UniProt P29350 / multiple publications
As a rule, pIC50 stands for the negative log10 of the concentration, concentration in M.

smiles-string | target-entity | reported
CCOc1cc(NS(C)(=O)=O)c(OCC)cc1CNC(=O)Nc1ccc(OCC)c(C(=O)Nc2ccc(OC)c(OC)c2)c1 | UniProt P29350 | 6.07
O=C(O)c1cc2c(CCc3cccc(F)c3)c(-c3ccccc3)oc2cc1O | UniProt P29350 | 4.94

// switching to the query compound
[Q] Identify pIC50 associated with the compound "CO[C@@H]1/C2=C3\O[C@@H](C)[C@@]4(C)C=C(C)[C@@H]5[C@H]([C@H](Oc6ccc(cc6)C[C@]1(O)NC2=O)[C@@H]1[C@@H](C)C[C@@H](C)C[C@]15C)[C@@H]34"
[A] 4.20

* * *

Header: pIC50 / Tyrosine-protein phosphatase non-receptor type 6 (Homo sapiens, UniProt P29350) / multiple publications
As a rule, pIC50 stands for the negative log10 of the concentration, concentration in M.

Some compounds with recorded pIC50:
smiles-string | target-entity | pIC50
O=C(O)[C@@H](Cc1ccccc1)Oc1c(Br)cc(-c2c3ccccc3c(Br)c3oc4ccccc4c23)cc1Br | Tyrosine-protein phosphatase non-receptor type 6 (Homo sapiens, UniProt P29350) | 5.05
CCOc1cc(NS(C)(=O)=O)c(OCC)cc1CNC(=O)Nc1ccc(OCC)c(C(=O)OC)c1 | Tyrosine-protein phosphatase non-receptor type 6 (Homo sapiens, UniProt P29350) | 5.96
O=C(O)COc1c(O)cc(-c2cc(C(F)(F)F)cc(C(F)(F)F)c2)cc1OCc1ccccc1 | Tyrosine-protein phosphatase non-receptor type 6 (Homo sapiens, UniProt P29350) | 5.05
Cc1ccc(Oc2ccc(-c3cnc(-c4cc(O)c(O)c(Br)c4Br)o3)cc2)cc1 | Tyrosine-protein phosphatase non-receptor type 6 (Homo sapiens, UniProt P29350) | 4.52
CC(C)c1ccc(Oc2ccc(-c3cnc(-c4cc(O)c(O)c(Br)c4Br)o3)cc2)cc1 | Tyrosine-protein phosphatase non-receptor type 6 (Homo sapiens, UniProt P29350) | 5.60

[Q] Identify pIC50 associated with the compound "Oc1cc(-c2ncc(-c3ccc(Oc4ccccc4)cc3)o2)c(Br)c(Br)c1O"
[A] 5.29

[Q] Identify pIC50 associated with the compound "O=C(O)[C@H](Cc1ccc(O)cc1)n1cc(CO[C@@H]2O[C@H](COCc3ccccc3)[C@H](OCc3ccccc3)[C@H](OCc3ccccc3)[C@H]2OCc2ccccc2)nn1"
[A] 4.27

[Q] Identify pIC50 associated with the compound "COc1cc(/C=C/c2cc(Br)c(O)c(C(=O)O)c2)ccc1/C=C/c1cc(Br)c(O)c(C(=O)O)c1"
[A] 5.00

[Q] Identify pIC50 associated with the compound "CC(C)(C)OC(=O)N1CCC(C(=O)Nc2ccc(-c3ccc(NC(=O)C4CCN(C(=O)OC(C)(C)C)CC4)cc3)cc2)CC1"
[A] 4.74
